Let's look at some molecules and their measured log10(IC50).
Biological target: human PRMT1 (Homo sapiens, UniProt Q99873)
Construct: GST-tagged PRMT1; made in house; host or cells: High Five insect cells (baculovirus)
Sequence (Q99873 other isoform, or with tags, fused parts or gaps): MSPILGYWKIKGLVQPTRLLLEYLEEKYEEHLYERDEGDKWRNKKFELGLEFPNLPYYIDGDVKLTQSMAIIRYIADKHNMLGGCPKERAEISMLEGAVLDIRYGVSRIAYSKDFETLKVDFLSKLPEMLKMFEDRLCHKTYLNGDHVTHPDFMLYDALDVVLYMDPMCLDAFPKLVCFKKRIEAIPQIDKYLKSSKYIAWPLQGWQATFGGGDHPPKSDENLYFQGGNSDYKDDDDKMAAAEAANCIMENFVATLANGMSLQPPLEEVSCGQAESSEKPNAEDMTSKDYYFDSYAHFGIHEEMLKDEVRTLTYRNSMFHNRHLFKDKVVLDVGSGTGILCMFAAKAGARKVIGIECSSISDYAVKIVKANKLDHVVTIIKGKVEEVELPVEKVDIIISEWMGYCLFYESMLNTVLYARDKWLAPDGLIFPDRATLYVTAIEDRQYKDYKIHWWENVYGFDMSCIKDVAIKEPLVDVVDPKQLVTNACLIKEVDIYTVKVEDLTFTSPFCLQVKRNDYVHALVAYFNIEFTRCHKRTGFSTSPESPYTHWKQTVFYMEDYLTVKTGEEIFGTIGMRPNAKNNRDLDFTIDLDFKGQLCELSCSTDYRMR
Test: biochemical
Details: single experiment or average of multiple experiments; read-out: PRMT1 biochemical evaluation (numerical)
Recall that a logarithmic scale is used here: each number is log10 of IC50 in nM.

Illustrative cases are given below, each with its answer.
CNCCN(C)Cc1n[nH]c2ccc(OCC3CCCC3)cc12    3.57
CNCCN(C)Cc1n[nH]c2ccc(OCc3ccn(C)n3)cc12    0.80
CNCCN(C)Cc1n[nH]c2ccc(OCC3CCN(C(C)=O)CC3)cc12    3.74

Which log10(IC50) is listed for `CNCCN(C)Cc1n[nH]c2ccc(OCc3cccc(C(F)(F)F)c3)cc12` ?
2.26

Fill in the blank: the reported log10(IC50) of `CNCCN(C)Cc1nn(C)c2ccc(OCC(C)C)cc12` is ____.
1.75

Using the record for `CNCCN(C)Cc1n[nH]c2ccc(OCc3ccc(C#N)cc3)cc12` , report its log10(IC50).
1.94

Look up log10(IC50): `CC(C)COc1ccc2[nH]nc(CN(C)CCN)c2c1`
1.32

Param item = `CNCCN(C)Cc1nn(C(C)C)c2ccc(OCc3ccc(C#N)cc3)cc12` ; retrieve measured log10(IC50).
1.75

Which log10(IC50) reading was recorded for the molecule `CNCCN(C)Cc1n[nH]c2ccc(OCc3cccc(NC(C)=O)c3)cc12` ?
2.27

log10(IC50) for `CNCCN(C)Cc1n[nH]c2ccc(Oc3ccc(C#N)cc3)cc12` ?
3.81

Fill in the blank: the reported log10(IC50) of CNCCN(C)Cc1n[nH]c2cccc(OCCC(O)CO)c12 (stereo not shown) is ____.
3.59

Item `CNCCN(C)Cc1n[nH]c2ccc(Oc3ccccc3OC(C)C)cc12` has what recorded log10(IC50)?
3.00

Which log10(IC50) is reported for this molecule? `CNCCN(C)Cc1n[nH]c2ccc(C(C)C)cc12`
2.89

Param item = `CNCCN(C)Cc1n[nH]c2ccc(Oc3ccc(C)cc3)cc12` ; retrieve measured log10(IC50).
3.82

# input molecule: CNCCN(C)Cc1n[nH]c2ccc(OCC(C)c3ccccc3)cc12 (stereo not shown) ; wanted: its log10(IC50)
1.20

What value of log10(IC50) has been reported for the following molecule? `CNCCN(C)Cc1c2cc(OCc3ccc(C#N)cc3)ccc2nn1C1CCOCC1`
3.25

Fill blank: measured log10(IC50) of the molecule `CNCCN(C)Cc1n[nH]c2ccc(OC3CCN(C(C)=O)CC3)cc12` is ____.
1.76

# get_value(readout='log10(IC50)', item= `CNCCN(C)Cc1n[nH]c2ccc(Oc3ccc(OC(C)C)cc3)cc12` )
1.61

Entry under review: `CNCCN(C)Cc1n[nH]c2ccc(OCc3cccc(C#N)c3)cc12` . Reported log10(IC50)?
1.37

* * *

Molecular target: human PRMT1 (Homo sapiens, UniProt Q99873)
Construct: GST-tagged PRMT1; made in house; host or cells: High Five insect cells (baculovirus)
Assay: biochemical
Conditions: biochemical evaluation, peptide substrate; read-out: PRMT1 IC50
Endpoint Name: IC50

CNCCN(C)Cc1n[nH]c2ccc(C3CCOCC3)cc12    < 100 nM

Tell me reported IC50 for `CNCCN(C)Cc1nn(C)c2ccc(OCC(C)C)cc12` , tested with human PRMT1 (Homo sapiens, UniProt Q99873).
< 100 nM

Query IC50 on human PRMT1 (Homo sapiens, UniProt Q99873) for `CNCCN(C)Cc1n[nH]c2ccc(OC3CCN(C(C)=O)CC3)cc12`
101 to 1000 nM

Please provide the recorded IC50 for `CNCCN(C)Cc1n[nH]c2ccc(OCc3cccc(C#N)c3)cc12` , tested on human PRMT1 (Homo sapiens, UniProt Q99873).
< 100 nM

Test system human PRMT1 (Homo sapiens, UniProt Q99873); read-out IC50; what value for `CNCCN(C)Cc1n[nH]c2ccc(OCC3CCCC3)cc12` ?
1010 to 3000 nM

Entry `CNCCN(C)Cc1n[nH]c2ccc(OCc3cccc(NC(C)=O)c3)cc12` , system human PRMT1 (Homo sapiens, UniProt Q99873): what IC50 was measured?
101 to 1000 nM

For the record `CNCCN(C)Cc1n[nH]c2ccc(Oc3ccccc3OC)cc12` , what value of IC50 is listed for human PRMT1 (Homo sapiens, UniProt Q99873)?
< 100 nM

* * *

Target: UniProt Q96LA8
Sequence (Q96LA8 with tags, fused parts or gaps): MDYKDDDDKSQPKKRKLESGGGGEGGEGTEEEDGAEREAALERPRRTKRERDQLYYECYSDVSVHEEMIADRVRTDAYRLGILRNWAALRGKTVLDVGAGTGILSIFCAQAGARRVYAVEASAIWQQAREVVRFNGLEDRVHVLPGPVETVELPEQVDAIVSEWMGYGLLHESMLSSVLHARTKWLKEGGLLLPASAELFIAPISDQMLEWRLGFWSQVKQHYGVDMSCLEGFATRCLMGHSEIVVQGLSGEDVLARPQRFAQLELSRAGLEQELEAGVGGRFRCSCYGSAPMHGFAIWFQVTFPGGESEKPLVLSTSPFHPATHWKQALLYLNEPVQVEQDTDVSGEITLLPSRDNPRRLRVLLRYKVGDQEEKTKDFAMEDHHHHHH
Experiment: biochemical
Details: biochemical evaluation, peptide substrate; read-out: PRMT6 IC50
pIC50: −log10 of the molar value.
pIC50 by entry:

Some solved cases for reference:
CNCCN(C)Cc1n[nH]c2ccc(Oc3ccc(Cl)cc3)cc12 [Compound 57]    6.00 to 7.00
CNCCN(C)Cc1n[nH]c2ccc(OCc3ccn(CC(C)C)n3)cc12 [Compound 33]    > 7.00
CNCCN(C)Cc1nn(C)c2ccc(OCC(C)C)cc12 [Compound 3]    6.00 to 7.00
CNCCN(C)Cc1n[nH]c2ccc(OCc3cc[nH]n3)cc12 [Compound 17]    > 7.00
CNCCN(C)Cc1n[nH]c2ccc(OC(C)Cc3ccccc3)cc12 (stereo not drawn) [Compound 9]    > 7.00
CNCCN(C)Cc1n[nH]c2ccc(OCc3ccc(C#N)cc3)cc12 [Compound 13]    > 7.00

# pIC50 lookup, item CNCCN(C)Cc1n[nH]c2ccc(OCc3cccc(C(C)=O)c3)cc12 [Compound 73]
> 7.00

* * *

# pIC50 per record follows
Target: human PRMT1 (Homo sapiens, UniProt Q99873)
Construct: GST-tagged PRMT1; made in house; host or cells: High Five insect cells (baculovirus)
Assay: biochemical
Settings: single experiment or average of multiple experiments; read-out: PRMT1 biochemical evaluation (numerical)
Bear in mind: pIC50 is minus log10 of a mol/L concentration; give just that figure.

Worked cases, answers included:
CNCCN(C)Cc1n[nH]c2cccc(OCCCC(O)CO)c12 (centres unmarked)    7.17
CNCCN(C)Cc1n[nH]c2ccc(OCc3cccc(C(C)=O)c3)cc12    6.85
CNCCN(C)Cc1nn(C)c2ccc(OCc3ccc(C#N)cc3)cc12    7.13
CNCCN(C)Cc1n[nH]c2ccc(OC3CCOC3)cc12 (centres unmarked)    7.09

# query: pIC50 | item `CCCOc1ccc2[nH]nc(CN(C)CCNC)c2c1` | system: human PRMT1 (Homo sapiens, UniProt Q99873)
6.89

* * *

Target: human PRMT8 (Homo sapiens)
Sequence (Q9NR22 whole entry): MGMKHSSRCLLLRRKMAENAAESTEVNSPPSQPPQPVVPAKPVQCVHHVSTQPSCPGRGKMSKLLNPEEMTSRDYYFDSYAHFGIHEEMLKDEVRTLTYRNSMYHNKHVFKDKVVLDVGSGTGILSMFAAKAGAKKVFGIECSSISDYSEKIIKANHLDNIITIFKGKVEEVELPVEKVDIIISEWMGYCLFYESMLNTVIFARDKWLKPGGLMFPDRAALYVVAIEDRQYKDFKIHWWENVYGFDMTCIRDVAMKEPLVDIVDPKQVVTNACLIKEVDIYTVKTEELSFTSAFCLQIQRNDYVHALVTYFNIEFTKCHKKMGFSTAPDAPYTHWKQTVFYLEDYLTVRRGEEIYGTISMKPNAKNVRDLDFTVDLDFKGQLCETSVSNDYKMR
Test: biochemical
Settings: single experiment or average of multiple experiments; read-out: PRMT8 biochemical evaluation (numerical)
Endpoint Name: IC50 (nM)
Respond with the bare value in nM.

CNCCN(C)Cc1n[nH]c2ccc(C3=CCCCC3)cc12    83.4
CNCCN(C)Cc1n[nH]c2cccc(OCc3ccccc3)c12    67.5
CNCCN(C)Cc1n[nH]c2ccc(C3CCCCC3)cc12    91.8

Which IC50 reading was recorded for the molecule `CNCCN(C)Cc1n[nH]c2ccc(C3=CCOCC3)cc12` ?
133

* * *

Biological target: Human CARM1 (PRMT4) (Homo sapiens)
Construct: Flag-CARM1-His; made in house; host or cells: HEK 293F cells (BacMam baculovirus)
Sequence (Q86X55 1-585 isoform Q86X55-1): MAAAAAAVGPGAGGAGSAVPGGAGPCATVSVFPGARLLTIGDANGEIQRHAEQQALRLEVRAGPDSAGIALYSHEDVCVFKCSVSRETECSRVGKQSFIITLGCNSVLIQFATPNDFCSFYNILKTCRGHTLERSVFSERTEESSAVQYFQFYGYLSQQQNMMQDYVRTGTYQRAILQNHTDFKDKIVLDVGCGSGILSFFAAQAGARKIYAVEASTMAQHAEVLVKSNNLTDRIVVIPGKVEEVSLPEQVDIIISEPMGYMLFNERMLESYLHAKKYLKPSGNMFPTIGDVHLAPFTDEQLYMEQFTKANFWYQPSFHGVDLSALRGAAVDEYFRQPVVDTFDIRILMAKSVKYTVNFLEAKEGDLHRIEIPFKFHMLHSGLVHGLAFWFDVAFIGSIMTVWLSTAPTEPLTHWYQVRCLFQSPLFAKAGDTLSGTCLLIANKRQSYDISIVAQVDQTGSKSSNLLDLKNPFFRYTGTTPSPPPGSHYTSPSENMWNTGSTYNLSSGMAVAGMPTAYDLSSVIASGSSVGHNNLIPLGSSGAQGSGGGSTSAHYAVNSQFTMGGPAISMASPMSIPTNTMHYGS
Assay: CARM1 Biochemical Assay
Conditions: PRMT4 biochemical evaluation (numerical), single experiment or average of multiple experiments
Source text: General Materials. […] General Procedure for CARM1 Enzyme Assays on Peptide Substrates. […] The plates were then read in a PerkinElmer TopCount plate reader to measure the quantity of ^3H-labeled peptide bound to the Flashplate surface, measured as disintegrations per minute (dpm) or alternatively, referred to as counts per minute (cpm). […]
IC50 values for the compounds below.
Numbers only; they are read as nM.

CNCCN(C)Cc1n[nH]c2ccc(C3CCOCC3)cc12    1010
CNCCN(C)Cc1n[nH]c2ccc(Oc3ccc(OC)cc3)cc12    313

# input compound: `CNCCN(C)Cc1n[nH]c2ccc(C3CCCCC3)cc12` ; wanted: its IC50
370
